test: clinical; assay type: in vivo, human; conditions: human, plasma, oral, 75 mg, food effect, 75 mg Fed (10), adults, mean (%CV); read-out: Cmax
measured-metric: Cmax (ng/mL)
Answers are plain numbers, in ng/mL.

Fill in reported Cmax for this entry: `C[C@@]1(c2nc(NC(=O)c3ncc(C(F)(F)F)cc3Cl)ccc2F)CO[C@@](C)(C(F)(F)F)C(N)=N1` 179

* * *

Assay: clinical
Type: in vivo, human
Conditions: human, plasma, oral, 10 mg, single dose 10 mg, adults (n = 5), mean (%CV)
Procedure: The lower limit of quantification (LLOQ) was 1 ng/ml in plasma and 2 ng/ml in urine and CSF, except for the 3‐month study where the method for CSF was more sensitive (LLOQ 0.1 ng/ml). Plasma PK parameters were calculated using actual recorded sampling times and non‐compartmental methods with Phoenix WinNonlin version 6.4 (Certara, Inc., Princeton, NJ, USA). For further details, see the Appendix Table S10 in Appendix and the accompanying clinical protocols synopsis (Appendix Table S11).
measured-metric: AUC(0-inf) (ng·h/mL)
Give bare numbers, in ng·h/mL.

Given the compound `C[C@@]1(c2nc(NC(=O)c3ncc(C(F)(F)F)cc3Cl)ccc2F)CO[C@@](C)(C(F)(F)F)C(N)=N1` , write its reported AUC(0-inf). 948

* * *

assay: clinical; assay type: in vivo, human; details: human, plasma, oral, 10 mg, AUC 0–24h, 10 mg, 14 days, Day 14, mean (CV%)
measured-metric: AUC(0-t) (ng·h/mL)
Give bare numbers, in ng·h/mL.

For the molecule `C[C@@]1(c2nc(NC(=O)c3ncc(C(F)(F)F)cc3Cl)ccc2F)CO[C@@](C)(C(F)(F)F)C(N)=N1` , give its reported AUC(0-t). 1400

* * *

Test: clinical
Assay type: in vivo, human
Details: human, plasma, oral, 30 mg, single dose 30 mg, adults (12), median (min–max); read-out: Tmax
Procedure: The lower limit of quantification (LLOQ) was 1 ng/ml in plasma and 2 ng/ml in urine and CSF, except for the 3‐month study where the method for CSF was more sensitive (LLOQ 0.1 ng/ml). Plasma PK parameters were calculated using actual recorded sampling times and non‐compartmental methods with Phoenix WinNonlin version 6.4 (Certara, Inc., Princeton, NJ, USA). For further details, see the Appendix Table S10 in Appendix and the accompanying clinical protocols synopsis (Appendix Table S11).
measured-metric: Tmax

# return recorded Tmax for entry C[C@@]1(c2nc(NC(=O)c3ncc(C(F)(F)F)cc3Cl)ccc2F)CO[C@@](C)(C(F)(F)F)C(N)=N1 [CNP520] 3.5 h

* * *

Assay: clinical
Format: in vivo, human
Conditions: human, plasma, oral, 2 mg, 3 months, Day 91, median (min–max)
Description: The lower limit of quantification (LLOQ) was 1 ng/ml in plasma and 2 ng/ml in urine and CSF, except for the 3‐month study where the method for CSF was more sensitive (LLOQ 0.1 ng/ml). Plasma PK parameters were calculated using actual recorded sampling times and non‐compartmental methods with Phoenix WinNonlin version 6.4 (Certara, Inc., Princeton, NJ, USA). For further details, see the Appendix Table S10 in Appendix and the accompanying clinical protocols synopsis (Appendix Table S11).
measured-metric: Tmax (h)
Numbers only, in h.

Identify the reported Tmax for the following entry. C[C@@]1(c2nc(NC(=O)c3ncc(C(F)(F)F)cc3Cl)ccc2F)CO[C@@](C)(C(F)(F)F)C(N)=N1 [CNP520] 2.5
